// reported IC50 per item
- target-desc: human EP1 receptor (Homo sapiens, UniProt P34995)
- Construct: expressed in transfected cells; host or cells: CHO-K1
- Sequence (P34995 whole entry): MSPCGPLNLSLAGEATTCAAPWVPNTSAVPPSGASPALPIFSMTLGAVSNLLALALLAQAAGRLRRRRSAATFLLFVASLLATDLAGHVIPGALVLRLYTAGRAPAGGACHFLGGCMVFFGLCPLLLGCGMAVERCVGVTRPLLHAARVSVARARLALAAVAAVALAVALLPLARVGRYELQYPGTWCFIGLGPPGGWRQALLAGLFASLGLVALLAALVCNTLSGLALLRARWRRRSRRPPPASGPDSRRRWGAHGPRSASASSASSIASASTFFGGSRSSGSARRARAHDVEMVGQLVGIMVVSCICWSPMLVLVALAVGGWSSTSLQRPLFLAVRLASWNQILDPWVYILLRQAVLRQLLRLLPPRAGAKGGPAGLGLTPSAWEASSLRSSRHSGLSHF
- assay-details: human EP1 calcium mobilisation assay
- Type: cell-based
- condition-details: human EP1 calcium mobilisation assay; read-out: pIC50 values (converted)
Structures can show the parent of a compound that is named as a salt.

Worked cases, IC50 given:
[[record]]
molecule = "O=C(NCc1ccccc1)c1cccc(Cc2cc(Cl)ccc2OCc2ccccc2)n1"
result = "> 10 µM"

[[record]]
molecule = "O=C(Nc1ccccn1)c1cccc(Cc2cc(Cl)ccc2OCc2ccccc2)n1"
result = "> 10 µM"


# input Query: IC50; subject: CN(C)Cc1ccc2nc(-c3cccc(Cc4cc(Cl)ccc4OCc4ccc(Cl)cc4F)n3)[nH]c2c1 [Example 58, Hydrochloride]
# output > 10 µM
